Method notes: Phase I plasma pharmacokinetics in patients
Assay type: in vivo, human
Condition context: human, plasma, po, 800 mg, Day 7, 800 mg b.i.d. p.o. (n=8), mean, course 1

{"columns": ["Line notation", "Unit spec", "AUC(0-t)"],
 "data": [
  ["CC[C@H](CO)Nc1nc(NCc2ccccc2)c2ncn(C(C)C)c2n1", "ng·h/mL", 26500]
]}

###

Method notes: Phase I plasma pharmacokinetics in patients
Format: in vivo, human
Condition context: human, plasma, po, 200 mg, Day 1, 200 mg b.i.d. p.o. (n=6), median, course 1

{"columns": ["Compound", "Unit spec", "AUC(0-inf)"],
 "data": [
  ["CC[C@H](CO)Nc1nc(NCc2ccccc2)c2ncn(C(C)C)c2n1 [Seliciclib]", "ng·h/mL", 3840]
]}

###

Method notes: Phase I plasma pharmacokinetics in patients
Format: in vivo, human
Condition context: human, plasma, po, 800 mg, Day 1, 800 mg b.i.d. p.o. (n=12), median, course 1

{"columns": ["Compound", "AUC(0-t)"],
 "data": [
  ["CC[C@H](CO)Nc1nc(NCc2ccccc2)c2ncn(C(C)C)c2n1 [Seliciclib]", "57400 ng·h/mL"]
]}

###

Method notes: Phase I plasma pharmacokinetics in patients
Assay type: in vivo, human
Condition context: human, plasma, po, 800 mg, Day 7, 800 mg b.i.d. p.o. (n=8), median, course 1; read-out: Tmax (converted)
Metric name: Tmax

{"columns": ["Line notation", "Metric name", "Value reported"],
 "data": [
  ["CC[C@H](CO)Nc1nc(NCc2ccccc2)c2ncn(C(C)C)c2n1", "Tmax", "1.78 h"]
]}

###

Method notes: Phase I plasma pharmacokinetics in patients
Format: in vivo, human
Condition context: human, plasma, po, 100 mg, Day 7, 100 mg b.i.d. p.o. (n=3), mean, course 1

{"columns": ["Line notation", "AUC(0-t)"],
 "data": [
  ["CC[C@H](CO)Nc1nc(NCc2ccccc2)c2ncn(C(C)C)c2n1", "2860 ng·h/mL"]
]}

###

Method notes: Phase I plasma pharmacokinetics in patients
Assay type: in vivo, human
Condition context: human, plasma, po, 200 mg, Day 1, 200 mg b.i.d. p.o. (n=6), mean, course 1; read-out: t1/2

{"columns": ["Compound", "half-life [h]"],
 "data": [
  ["CC[C@H](CO)Nc1nc(NCc2ccccc2)c2ncn(C(C)C)c2n1 [Seliciclib]", 2.93]
]}

###

Method notes: Phase I plasma pharmacokinetics in patients
Assay type: in vivo, human
Condition context: human, plasma, po, 100 mg, Day 1, 100 mg b.i.d. p.o. (n=3), mean, course 1; read-out: Cmax
Method: For PK analysis, blood samples (approximately 8 ml each) were collected in tubes with lithium heparin anticoagulant at the following time points: pre-dose and 0.5, 1, 1.5, 2, 4, 8, 12 (pre-second dose), 13, 14 and 24 h (pre-dose if day 2) after dosing on both days 1 and 7 of the first cycle. The samples were then centrifuged at 3000 r.p.m at 4°C for 10 min, the plasma transferred to 2 ml cryovials and frozen at −70°C until analysis. […]

{"columns": ["Line notation", "Cmax [ng/mL]"],
 "data": [
  ["CC[C@H](CO)Nc1nc(NCc2ccccc2)c2ncn(C(C)C)c2n1", 248]
]}
